Just for reference, PubChem BioAssay AID588590 is where these values come from.

target: DNA polymerase iota (Homo sapiens) (UniProt Q9UNA4); experiment: qHTS for Inhibitors of Polymerase Iota; conditions: Pol iota fluorescent replication assay, 10 min; series mostly up to 115 µM
Sequence (Q9UNA4 whole entry, looked up): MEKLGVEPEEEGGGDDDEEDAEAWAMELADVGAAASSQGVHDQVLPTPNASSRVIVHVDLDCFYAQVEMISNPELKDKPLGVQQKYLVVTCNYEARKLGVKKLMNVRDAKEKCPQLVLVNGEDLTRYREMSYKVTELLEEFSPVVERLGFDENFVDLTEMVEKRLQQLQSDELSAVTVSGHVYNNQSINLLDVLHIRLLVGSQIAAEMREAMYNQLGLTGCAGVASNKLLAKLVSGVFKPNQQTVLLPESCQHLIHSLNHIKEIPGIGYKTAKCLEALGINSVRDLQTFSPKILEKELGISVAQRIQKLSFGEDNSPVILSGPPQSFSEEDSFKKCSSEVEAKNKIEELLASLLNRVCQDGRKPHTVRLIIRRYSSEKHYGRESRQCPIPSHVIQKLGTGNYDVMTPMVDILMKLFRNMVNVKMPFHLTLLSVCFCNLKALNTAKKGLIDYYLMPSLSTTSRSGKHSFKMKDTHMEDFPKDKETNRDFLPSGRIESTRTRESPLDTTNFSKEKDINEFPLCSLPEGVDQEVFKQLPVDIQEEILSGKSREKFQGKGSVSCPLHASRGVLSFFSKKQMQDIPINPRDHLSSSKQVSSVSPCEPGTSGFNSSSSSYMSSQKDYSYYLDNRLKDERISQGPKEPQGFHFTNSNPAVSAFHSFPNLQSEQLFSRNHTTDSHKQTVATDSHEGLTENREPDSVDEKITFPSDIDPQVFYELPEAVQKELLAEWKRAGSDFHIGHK
In all, about 390,000 compounds went through this assay and about 4,000 (1%) were called active. Roughly 7% stayed inconclusive and do not appear here. Calls come from the whole dose curve; as a rule, active = well fitted inhibition curve with a large enough effect; inconclusive = small, poorly fitted or top-dose-only effect, or another doubt; inactive = no such curve, though single readings can be large or run the other way. This excerpt belongs to a sample that is enriched for actives.
Parameter call: string, one of active, inactive

Q) What outcome does the record of this test show for Cc1csc(SCC(=O)Nc2sccc2C#N)n1 ?
A) active

---

molecular target: DNA polymerase iota (Homo sapiens) (UniProt Q9UNA4); experiment: qHTS for Inhibitors of Polymerase Iota; details: Pol iota fluorescent replication assay, 10 min; series mostly up to 115 µM; note: potency is the fitted concentration of half-maximal effect
Screen size: about 390,000 compounds; about 4,000 (1%) were called active. Inconclusive results (about 7%) are left out. Shown is part of a subset that was picked to be rich in actives.
parameter_measured: Potency

CC1CCN(C(=O)c2ccc3c(=O)n4c(nc3c2)CCCCC4)CC1    inactive
O=C1CCCN1C(=O)COc1ccc([N+](=O)[O-])cc1    inactive
N#Cc1cccc(OC(=O)c2ccc3c(=O)n4c(nc3c2)CCC4)c1    20 µM (active)
O=C(CSc1nc(=O)n(Cc2cccnc2)c2c1CCC2)Nc1ccc(F)cc1F    inactive
O=C(c1cc2c(s1)CCC2)N1CCN(c2ccccc2)CC1    25.1 µM (active)

Q) Notebook: pull reported Potency for DNA polymerase iota (Homo sapiens) (UniProt Q9UNA4), entry O=C(NCCc1ccccn1)c1cc(-c2ccc(Cl)cc2)nc2ccccc12
A) inactive

Q) Again, but for CCCOc1ccc(C2c3c(-c4ccccc4O)n[nH]c3C(=O)N2Cc2cccnc2)cc1 (configuration not stated)
A) inactive

Q) Again, but for O=[N+]([O-])c1ccc(/C=C/c2ccc3cccnc3c2)cc1
A) inactive

Q) Again, but for CC1(C)Cc2ccccc2-c2c[nH]c(=O)n21
A) inactive

Q) Again, but for C/C(=N\Nc1ccc(S(N)(=O)=O)cc1[N+](=O)[O-])c1cccs1
A) 25.1 µM (active)

Q) Again, but for COc1ccccc1CCNC(=O)c1cccn1-c1nnc(N2CCCCC2)s1
A) inactive

Q) Again, but for CCn1cc(C(=O)NCc2ccc(C)cc2)c(=O)c2cc(S(=O)(=O)N3CCc4ccccc4C3)ccc21
A) inactive
